In this section we review reported IC90, GM-CSF release, NCI/ADR-RES cells, trun-IL-36a values for a set of binders.
Molecular target: T1, human IL-36R on cells (human, UniProt Q9HB29 20-575)
T1 sequence (looked up): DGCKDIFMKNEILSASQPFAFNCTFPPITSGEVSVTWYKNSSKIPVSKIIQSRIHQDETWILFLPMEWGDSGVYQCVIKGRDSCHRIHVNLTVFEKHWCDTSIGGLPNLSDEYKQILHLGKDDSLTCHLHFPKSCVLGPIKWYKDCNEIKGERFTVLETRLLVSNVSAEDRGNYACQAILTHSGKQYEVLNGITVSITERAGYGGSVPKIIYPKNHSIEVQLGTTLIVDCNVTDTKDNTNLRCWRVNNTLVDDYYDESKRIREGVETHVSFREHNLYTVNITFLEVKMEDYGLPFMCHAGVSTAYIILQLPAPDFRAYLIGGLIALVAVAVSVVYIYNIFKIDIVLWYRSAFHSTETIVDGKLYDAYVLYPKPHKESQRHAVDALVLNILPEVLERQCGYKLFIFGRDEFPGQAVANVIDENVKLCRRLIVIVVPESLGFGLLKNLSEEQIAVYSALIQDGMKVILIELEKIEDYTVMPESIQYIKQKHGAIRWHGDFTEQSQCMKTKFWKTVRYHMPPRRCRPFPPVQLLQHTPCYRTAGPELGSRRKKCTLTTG
Assay: cell-based or functional assay
Express it in nM; write the number only.

The following binders have reported results that may help.
binder: antibody 73F6 (antibody, V domains shown, Mouse monoclonal from hybridoma; also called 73F6F8; Mouse 73F6) VH: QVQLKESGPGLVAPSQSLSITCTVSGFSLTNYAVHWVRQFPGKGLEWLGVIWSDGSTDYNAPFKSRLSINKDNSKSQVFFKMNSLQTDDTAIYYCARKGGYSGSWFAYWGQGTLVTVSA VL: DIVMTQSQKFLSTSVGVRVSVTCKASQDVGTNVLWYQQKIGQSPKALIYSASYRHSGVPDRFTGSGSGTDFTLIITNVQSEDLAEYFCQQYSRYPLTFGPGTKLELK
measurementUnit: nM
experimentalValue: 5.9
//
binder: antibody 78C8 (antibody, V domains shown, Mouse monoclonal from hybridoma; also called 78C8D1; Mouse 78C8) VH: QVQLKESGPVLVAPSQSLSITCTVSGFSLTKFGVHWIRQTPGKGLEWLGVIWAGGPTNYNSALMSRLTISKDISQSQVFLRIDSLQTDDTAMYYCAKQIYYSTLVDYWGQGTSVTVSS VL: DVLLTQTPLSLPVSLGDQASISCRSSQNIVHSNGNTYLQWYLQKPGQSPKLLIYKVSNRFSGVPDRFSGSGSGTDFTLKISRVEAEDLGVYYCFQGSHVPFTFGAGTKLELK
measurementUnit: nM
experimentalValue: 7.1
//
binder: antibody 81B4 (antibody, V domains shown, Mouse monoclonal from hybridoma; also called 81B4E11; Mouse 81B4) VH: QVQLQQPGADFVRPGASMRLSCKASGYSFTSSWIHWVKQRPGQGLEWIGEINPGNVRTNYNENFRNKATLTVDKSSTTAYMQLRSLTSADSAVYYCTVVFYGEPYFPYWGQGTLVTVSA VL: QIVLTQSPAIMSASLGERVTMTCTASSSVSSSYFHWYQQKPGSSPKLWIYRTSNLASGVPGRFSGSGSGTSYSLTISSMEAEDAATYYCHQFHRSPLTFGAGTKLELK
measurementUnit: nM
experimentalValue: 0.8
//
binder: antibody 81A1 (antibody, V domains shown, Mouse monoclonal from hybridoma; also called 81A1D1; Mouse 81A1) VH: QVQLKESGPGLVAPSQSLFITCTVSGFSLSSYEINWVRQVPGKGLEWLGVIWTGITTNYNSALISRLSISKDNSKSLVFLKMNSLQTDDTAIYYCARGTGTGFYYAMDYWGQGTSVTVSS VL: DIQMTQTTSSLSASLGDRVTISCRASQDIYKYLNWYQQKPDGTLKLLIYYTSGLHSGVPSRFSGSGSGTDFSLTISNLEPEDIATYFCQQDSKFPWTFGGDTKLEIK
measurementUnit: nM
experimentalValue: 1.2
//
binder: antibody 73C5 (antibody, V domains shown, Mouse monoclonal from hybridoma; also called 73C5C10; Mouse 73C5) VH: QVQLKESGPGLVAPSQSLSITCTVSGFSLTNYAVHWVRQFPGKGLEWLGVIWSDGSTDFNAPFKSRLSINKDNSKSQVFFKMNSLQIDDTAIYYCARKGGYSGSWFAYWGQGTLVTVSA VL: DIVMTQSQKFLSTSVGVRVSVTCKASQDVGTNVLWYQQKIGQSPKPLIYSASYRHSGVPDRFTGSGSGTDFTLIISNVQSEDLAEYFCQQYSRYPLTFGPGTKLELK
measurementUnit: nM
experimentalValue: 4.8

Shifting focus to the binder that follows.
Provide measured IC90, GM-CSF release, NCI/ADR-RES cells, trun-IL-36a value, entry: antibody 33D10 (antibody, V domains shown, Mouse monoclonal from hybridoma; also called 33D10B12; Mouse 33D10) VH: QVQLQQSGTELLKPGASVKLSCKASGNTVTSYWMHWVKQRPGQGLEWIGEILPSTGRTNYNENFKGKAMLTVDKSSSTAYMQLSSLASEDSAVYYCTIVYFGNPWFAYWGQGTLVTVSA VL: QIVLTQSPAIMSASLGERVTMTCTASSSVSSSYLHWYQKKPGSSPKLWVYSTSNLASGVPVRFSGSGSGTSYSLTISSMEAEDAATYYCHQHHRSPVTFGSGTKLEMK 0.8
